# Test Context: [M+H]+; instrument: TW; Major Mix IMS/Tof Calibration Kit (Waters)
Recorded collision cross section (N2) values for a group of compounds are listed next.
Write the figure, then the unit, nothing else.

Recorded results for 5 compounds are shown here.
[[record]]
compound = "CN(C/C=C/C#CC(C)(C)C)Cc1cccc2ccccc12"
result = "187.2 Å²"

[[record]]
compound = "OC(CCN1CCCCC1)(c1ccccc1)C1C[C@H]2C=C[C@@H]1C2 (some centres undefined)"
result = "177.7 Å²"

[[record]]
compound = "COc1ccc(CN(CCN(C)C)c2ccccn2)cc1"
result = "169.6 Å²"

[[record]]
compound = "CN1C[C@@H]2c3ccccc3Oc3ccc(Cl)cc3[C@H]2C1"
result = "167.6 Å²"

[[record]]
compound = "CNCC[C@H](Oc1cccc2ccccc12)c1cccs1"
result = "171 Å²"


Ask | Please give the measured collision cross section (N2) for this compound: CCC(=O)NS(=O)(=O)c1ccc(-c2c(-c3ccccc3)noc2C)cc1
Reply | 189.2 Å²

Ask | Moving on to the next compound: COc1ccc2cccc(CCNC(C)=O)c2c1
Reply | 156.3 Å²

Ask | Moving on to the next compound: O=C1CN=C(c2ccccc2)c2cc(Cl)ccc2N1CC1CC1
Reply | 174 Å²

Ask | Moving on to the next compound: Cc1nccn1CC1CCc2c(c3cccc(O)c3n2C)C1=O (centres undefined) [Ondansetron-M 8-hydroxy]
Reply | 173.7 Å²

----------
# Test Context: [M+H]+; instrument: TW; calibrated with polyalanine and drug standards
Readout Type: collision cross section (N2) (Å²)
Field format: number, assumed Å², no unit text.

Recorded results for 6 compounds are shown here.
[[record]]
compound = "CCOC(=O)Nc1nc2ccccc2[nH]1 [LOBENDAZOLE]"
readout_type = "collision cross section (N2)"
measure_unit = "Å²"
result_number = 141.7

[[record]]
compound = "O=C1C(CCS(=O)c2ccccc2)C(=O)N(c2ccccc2)N1c1ccccc1 (configuration not stated) [SULFINPYRAZONE]"
readout_type = "collision cross section (N2)"
measure_unit = "Å²"
result_number = 193.5

[[record]]
compound = "NCCCNCCSP(=O)(O)O [AMIFOSTINE]"
readout_type = "collision cross section (N2)"
measure_unit = "Å²"
result_number = 146.9

[[record]]
compound = "Cc1nc(-c2ccc(OCC(C)C)c(C#N)c2)sc1C(=O)O [FEBUXOSTAT]"
readout_type = "collision cross section (N2)"
measure_unit = "Å²"
result_number = 180.6

[[record]]
compound = "COc1ccc([C@@H]2CC(=O)c3c(O)cc(O)cc3O2)cc1O [HESPERETIN]"
readout_type = "collision cross section (N2)"
measure_unit = "Å²"
result_number = 169.1

[[record]]
compound = "COc1cc2c(cc1-c1cc3cc4ccoc4cc3oc1=O)OCO2 [PACHYRRHIZIN]"
readout_type = "collision cross section (N2)"
measure_unit = "Å²"
result_number = 170.7


Attention now turns to another entry.
Ask | Please give the measured collision cross section (N2) for this compound: CCn1nc(C(=O)O)c(=O)c2cc3c(cc21)OCO3 [CINOXACIN]
Reply | 148.5

----------
# Test Context: [M-H]-; instrument: DT; single field, calibrated with Agilent tune mix (Agilent)
Counter-ions that a name gives are not always drawn.
Readout Type: collision cross section (N2) (Å²)
Field format: number, assumed Å², no unit text.

[[record]]
compound = "CCCCCCCCCCCCCCCC(=O)O [Palmitic acid]"
readout_type = "collision cross section (N2)"
result_number = 167.52

[[record]]
compound = "O=P(O)(O)OCC(O)CO (stereo not given) [Glycerol 3-phosphate]"
readout_type = "collision cross section (N2)"
result_number = 124.86

[[record]]
compound = "N[C@H](CC(=O)O)C(=O)O [D-Aspartic acid]"
readout_type = "collision cross section (N2)"
result_number = 116.91

[[record]]
compound = "Cn1c(=O)c2[nH]c(=O)[nH]c2n(C)c1=O [1,3-Dimethyluric acid]"
readout_type = "collision cross section (N2)"
result_number = 134.24

[[record]]
compound = "O=C(O)CCc1ccccc1 [3-Phenylpropanoic acid]"
readout_type = "collision cross section (N2)"
result_number = 135.74


Ask | Please give the measured collision cross section (N2) for this compound: Cc1cc2nc3c(=O)[nH]c(=O)nc-3n(C[C@H](O)[C@H](O)[C@H](O)COP(=O)(O)O)c2cc1C [Flavin mononucleotide]
Reply | 194.92

Ask | Moving on to the next compound: CC(=O)N[C@@H](CCC(N)=O)C(=O)O [N-Acetylglutamine]
Reply | 136.82

Ask | Moving on to the next compound: O=S(=O)(O)Oc1c[nH]c2ccccc12 [Indoxyl sulfate]
Reply | 140.6

Ask | Moving on to the next compound: CCCCCCCCCCCCCC(=O)O [Myristic acid]
Reply | 159.21

Ask | Moving on to the next compound: NC[C@H](O)c1ccc(O)c(O)c1 [Norepinephrine]
Reply | 131.99

----------
# Test Context: [M-H]-; instrument: DT; single field, calibrated with Agilent tune mix (Agilent)
Readout Type: collision cross section (N2) (Å²)
Field format: number, assumed Å², no unit text.

Recorded results for 5 compounds are shown here.
[[record]]
compound = "Cc1cc2nc3c(=O)[nH]c(=O)nc-3n(C[C@H](O)[C@H](O)[C@H](O)CO)c2cc1C [Riboflavin (Vitamin B2)]"
readout_type = "collision cross section (N2)"
result_number = 184.12

[[record]]
compound = "COC(=O)[C@H](Cc1ccccc1)NC(=O)[C@@H](N)CC(=O)O [Aspartame]"
readout_type = "collision cross section (N2)"
result_number = 166.71

[[record]]
compound = "C[C@H](CCC(=O)NCCS(=O)(=O)O)[C@H]1CC[C@H]2[C@@H]3[C@H](O)C[C@@H]4C[C@H](O)CC[C@]4(C)[C@H]3CC[C@]12C [Taurochenodeoxycholate]"
readout_type = "collision cross section (N2)"
result_number = 205.39

[[record]]
compound = "CCCCCCCC(=O)SCCNC(=O)CCNC(=O)[C@H](O)C(C)(C)COP(=O)(O)OP(=O)(O)OC[C@H]1O[C@@H](n2cnc3c(N)ncnc32)[C@H](O)[C@@H]1OP(=O)(O)O [Octanoyl-CoA]"
readout_type = "collision cross section (N2)"
result_number = 268.72

[[record]]
compound = "C[C@H](NC(=O)CC[C@H](N)C(=O)O)C(=O)O [5-L-Glutamyl-L-alanine]"
readout_type = "collision cross section (N2)"
result_number = 140.25


Ask | Please give the measured collision cross section (N2) for this compound: O=P(O)(O)OC1C(OP(=O)(O)O)C(OP(=O)(O)O)C(OP(=O)(O)O)C(OP(=O)(O)O)C1OP(=O)(O)O (stereo not drawn) [Myo-inositol hexakisphosphate]
Reply | 193.29

Ask | Moving on to the next compound: O=C(O)c1c[nH]c2ccccc12 [Indole-3-carboxylic acid]
Reply | 124.5

Ask | Moving on to the next compound: Nc1nc(=O)c2ncn([C@H]3C[C@H](O)[C@@H](CO)O3)c2[nH]1 [Deoxyguanosine]
Reply | 156.76

Ask | Moving on to the next compound: O=c1c(O)c(-c2ccc(O)cc2)oc2cc(O)cc(O)c12 [Kaempferol]
Reply | 160.32

Ask | Moving on to the next compound: O=C(O)CCc1ccc(O)c(O)c1 [3,4-Dihydroxyhydrocinnamic acid]
Reply | 133.05

Ask | Moving on to the next compound: O=c1c(O)c(-c2ccc(O)c(O)c2)oc2cc(O)cc(O)c12 [Quercetin]
Reply | 158.98

Ask | Moving on to the next compound: c1ccc2[nH]ccc2c1 [Indole]
Reply | 117.08

Ask | Moving on to the next compound: O=c1nc[nH]c2c1ncn2[C@@H]1O[C@H](COP(=O)(O)OP(=O)(O)O)[C@@H](O)[C@H]1O [Inosine diphosphate]
Reply | 176.13

----------
# Test Context: [M+H]+; instrument: TW
Readout Type: collision cross section (N2) (Å²)
Field format: number, assumed Å², no unit text.

Recorded results for 6 compounds are shown here.
[[record]]
compound = "Fc1ccc(cc1)N\\3c2cc(c(F)cc2C(=O)C(/C(=O)O)=C/3)N4CCN(C)CC4 [Difloxacine]"
result_number = 192.3

[[record]]
compound = "O=C(CCCN1CCN(c2ccccn2)CC1)c1ccc(F)cc1 [Azaperone]"
result_number = 180.3

[[record]]
compound = "C[C@]12CC[C@H]3[C@@H](CCC4=C(Cl)C(=O)CC[C@@]43C)[C@@H]1CC[C@@H]2O [Clostebol]"
result_number = 173.6

[[record]]
compound = "COP(=O)(OC)OC=C(Cl)Cl [Dichlorvos]"
result_number = 133.07

[[record]]
compound = "CC(C(=O)O)c1ccc(N2Cc3ccccc3C2=O)cc1 (centres undefined) [Indoprofen]"
result_number = 166.4

[[record]]
compound = "O=C(O)Cc1ccccc1Nc1c(Cl)cccc1Cl [Diclofenac]"
result_number = 157.2


Ask | Please give the measured collision cross section (N2) for this compound: CCOP(=O)(NC(C)C)Oc1ccc(S(C)(=O)=O)c(C)c1 (centres undefined) [Fenamiphos sulfone]
Reply | 179.48

Ask | Moving on to the next compound: O=C(O)\C3=C\N(c2cc(N1CCN(CC)CC1)c(F)cc2C3=O)C4CC4 [Enrofloxacine]
Reply | 194.8

Ask | Moving on to the next compound: Cc1c(Nc2ncccc2C(=O)O)cccc1C(F)(F)F [Flunixin]
Reply | 159.1
